measured-on: cyno ST2L (cyno)
assay-text: affinity table; method not stated
pKd: −log10 of the molar value.
measured-quantity: pKd

| binder | numeric-value |
| --- | --- |
| STLM217 (antibody, from another filing, V domains shown) VH: EVQLLESGGGLVQPGGSLRLSCAASGFTFSVYDMFWVRQAPGKGLEWVSDIKGEGGETSYADSVKGRFTISRDNSKNTLYLQMNSLRAEDTAVYYCARDPWSTEGSFFVLDYWGQGTLVTVSS VL: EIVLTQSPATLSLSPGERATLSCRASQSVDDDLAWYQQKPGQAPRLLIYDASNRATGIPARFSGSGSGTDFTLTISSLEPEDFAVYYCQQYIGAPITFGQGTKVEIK | 11.40 |
| STLM123 (antibody, from another filing, V domains shown) VH: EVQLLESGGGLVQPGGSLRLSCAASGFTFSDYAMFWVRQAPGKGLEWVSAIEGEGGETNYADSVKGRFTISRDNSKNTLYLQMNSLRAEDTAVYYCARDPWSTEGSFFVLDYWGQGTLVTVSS VL: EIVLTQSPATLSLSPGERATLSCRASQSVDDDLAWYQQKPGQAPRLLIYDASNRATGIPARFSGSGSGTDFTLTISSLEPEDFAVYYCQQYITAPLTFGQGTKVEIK | 11.30 |
| STLM227 (antibody, from another filing, V domains shown) VH: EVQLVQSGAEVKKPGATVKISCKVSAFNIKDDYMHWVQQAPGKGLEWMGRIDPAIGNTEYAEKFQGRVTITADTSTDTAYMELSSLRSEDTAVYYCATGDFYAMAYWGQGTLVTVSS VL: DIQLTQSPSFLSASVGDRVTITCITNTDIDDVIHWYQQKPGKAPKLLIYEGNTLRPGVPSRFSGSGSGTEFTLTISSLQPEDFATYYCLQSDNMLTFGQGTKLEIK | 9.53 |
| STLM213 (antibody, from another filing, V domains shown) VH: EVQLLESGGGLVQPGGSLRLSCAASGFTFSFYDMIWVRQAPGKGLEWVSTIRGEGGDTNYADSVKGRFTISRDNSKNTLYLQMNSLRAEDTAVYYCARDPWSTEGSFFVLDYWGQGTLVTVSS VL: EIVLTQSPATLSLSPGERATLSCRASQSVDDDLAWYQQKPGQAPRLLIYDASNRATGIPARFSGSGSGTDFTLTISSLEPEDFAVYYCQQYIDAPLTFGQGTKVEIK | 11.10 |
| STLM221 (antibody, from another filing, V domains shown) VH: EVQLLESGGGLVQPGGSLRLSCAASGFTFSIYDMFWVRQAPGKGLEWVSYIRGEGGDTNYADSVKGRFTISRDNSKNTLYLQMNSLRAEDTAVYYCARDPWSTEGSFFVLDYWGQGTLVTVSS VL: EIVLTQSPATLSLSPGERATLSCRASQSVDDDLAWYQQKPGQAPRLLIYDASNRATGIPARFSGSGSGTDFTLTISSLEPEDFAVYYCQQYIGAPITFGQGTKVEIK | 10.66 |
| STLM220 (antibody, from another filing, V domains shown) VH: EVQLLESGGGLVQPGGSLRLSCAASGFTFSFYDMFWVRQAPGKGLEWVSDIRGEGGGTAYADSVKGRFTISRDNSKNTLYLQMNSLRAEDTAVYYCARDPWSTEGSFFVLDYWGQGTLVTVSS VL: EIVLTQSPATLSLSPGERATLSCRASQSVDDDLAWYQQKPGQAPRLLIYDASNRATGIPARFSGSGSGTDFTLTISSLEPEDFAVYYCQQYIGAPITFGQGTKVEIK | 11.05 |
| STLM209 (antibody, from another filing, V domains shown) VH: EVQLLESGGGLVQPGGSLRLSCAASGFTFSIYDMIWVRQAPGKGLEWVSTIRGEGGGTSYADSVKGRFTISRDNSKNTLYLQMNSLRAEDTAVYYCARDPWSTEGSFFVLDYWGQGTLVTVSS VL: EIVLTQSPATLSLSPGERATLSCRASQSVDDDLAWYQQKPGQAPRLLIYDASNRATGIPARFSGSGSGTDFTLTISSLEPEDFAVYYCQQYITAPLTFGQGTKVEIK | 11.05 |
| STLM231 (antibody, from another filing, V domains shown) VH: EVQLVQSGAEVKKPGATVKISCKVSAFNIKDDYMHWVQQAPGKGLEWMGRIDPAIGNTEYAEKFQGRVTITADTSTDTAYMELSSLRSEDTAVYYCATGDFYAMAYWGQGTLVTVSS VL: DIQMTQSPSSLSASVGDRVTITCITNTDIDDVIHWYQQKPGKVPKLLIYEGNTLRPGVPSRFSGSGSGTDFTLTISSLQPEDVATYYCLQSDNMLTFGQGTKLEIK | 9.76 |
| STLM212 (antibody, from another filing, V domains shown) VH: EVQLLESGGGLVQPGGSLRLSCAASGFTFSVYDMIWVRQAPGKGLEWVSTIRGEGGGTYYADSVKGRFTISRDNSKNTLYLQMNSLRAEDTAVYYCARDPWSTEGSFFVLDYWGQGTLVTVSS VL: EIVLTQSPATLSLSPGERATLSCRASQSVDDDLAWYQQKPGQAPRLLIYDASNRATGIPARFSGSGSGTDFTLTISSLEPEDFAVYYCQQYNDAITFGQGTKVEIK | 10.62 |
| STLM216 (antibody, from another filing, V domains shown) VH: EVQLLESGGGLVQPGGSLRLSCAASGFTFSSYDMFWVRQAPGKGLEWVSDIKGEGGATNYADSVKGRFTISRDNSKNTLYLQMNSLRAEDTAVYYCARDPWSTEGSFFVLDYWGQGTLVTVSS VL: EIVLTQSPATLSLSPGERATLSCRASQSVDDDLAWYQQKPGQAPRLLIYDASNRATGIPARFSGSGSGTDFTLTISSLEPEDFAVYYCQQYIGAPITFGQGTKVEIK | 11.52 |
